Please respond with reported pIC50 for every item in the list.
Target: Acetylcholinesterase (Electrophorus electricus)
Sequence (O42275 whole entry): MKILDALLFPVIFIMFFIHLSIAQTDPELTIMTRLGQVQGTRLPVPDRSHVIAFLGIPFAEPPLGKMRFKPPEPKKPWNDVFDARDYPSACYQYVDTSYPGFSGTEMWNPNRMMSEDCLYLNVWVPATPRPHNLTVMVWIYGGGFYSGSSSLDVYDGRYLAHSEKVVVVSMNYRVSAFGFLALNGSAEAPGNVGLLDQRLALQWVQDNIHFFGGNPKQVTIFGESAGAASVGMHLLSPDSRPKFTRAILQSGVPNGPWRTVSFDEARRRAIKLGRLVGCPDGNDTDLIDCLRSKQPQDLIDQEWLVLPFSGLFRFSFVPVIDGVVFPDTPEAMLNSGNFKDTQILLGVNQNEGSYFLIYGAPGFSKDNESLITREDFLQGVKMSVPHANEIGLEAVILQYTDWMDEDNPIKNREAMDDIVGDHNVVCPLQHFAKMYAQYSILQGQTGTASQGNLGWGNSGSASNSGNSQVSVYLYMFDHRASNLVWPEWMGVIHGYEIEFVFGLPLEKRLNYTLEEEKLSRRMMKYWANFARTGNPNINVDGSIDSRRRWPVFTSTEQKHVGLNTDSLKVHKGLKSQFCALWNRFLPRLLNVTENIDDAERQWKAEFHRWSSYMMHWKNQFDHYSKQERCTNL
Give bare numbers, as −log10 of the molar value.

Reference set, count: 5
structure | pIC50
COc1cc2oc(-c3ccc(OCC(=O)NCCCCCCN(C)Cc4ccccc4)cc3)cc(=O)c2c(OC)c1OC | 4.63
COc1ccccc1CN(C)CCNC(=O)COc1ccc(-c2cc(=O)c3c(OC)c(OC)c(OC)cc3o2)cc1 | 4.87
COc1ccccc1CN(C)CCCNC(=O)COc1ccc(-c2cc(=O)c3c(OC)c(OC)c(OC)cc3o2)cc1 | 5.28
COc1ccccc1CN(C)CCCCCCNC(=O)COc1ccc(-c2cc(=O)c3c(O)c(OC)c(OC)cc3o2)cc1 | 4.91
CCN(CCNC(=O)COc1ccc(-c2cc(=O)c3c(OC)c(OC)c(OC)cc3o2)cc1)Cc1ccccc1OC | 5.17

Quick batch: pIC50 for everything below.
1. CCN(CCCNC(=O)COc1ccc(-c2cc(=O)c3c(OC)c(OC)c(OC)cc3o2)cc1)Cc1ccccc1OC
2. COc1ccccc1CN(C)CCNC(=O)COc1ccc(-c2cc(=O)c3c(O)c(OC)c(OC)cc3o2)cc1
3. CCN(CCCCNC(=O)COc1ccc(-c2cc(=O)c3c(OC)c(OC)c(OC)cc3o2)cc1)Cc1ccccc1OC

*A*
5.18
4.85
5.01

###

Experiment: Antioxidant activity assessed as trolox equivalents of AAPH radical scavenging activity at 1 to 10 uM preincubated for 15 mins followed by AAPH addition measured every 60 sec for 90 mins by ORAC-FL assay
Type: functional
reported-endpoint: Activity (equiv)
One number for each entry, in equiv.

Reference set, count: 5
structure | Activity, equiv
COc1ccccc1CN(C)CCNC(=O)COc1ccc(-c2cc(=O)c3c(O)c(OC)c(OC)cc3o2)cc1 | 1.18
CCN(CCCNC(=O)COc1ccc(-c2cc(=O)c3c(OC)c(OC)c(OC)cc3o2)cc1)Cc1ccccc1OC | 0.33
CCN(CCNC(=O)COc1ccc(-c2cc(=O)c3c(OC)c(OC)c(OC)cc3o2)cc1)Cc1ccccc1 | 0.39
CCN(CCCCCCNC(=O)COc1ccc(-c2cc(=O)c3c(OC)c(OC)c(OC)cc3o2)cc1)Cc1ccccc1OC | 0.34
COc1ccccc1CN(C)CCNC(=O)COc1ccc(-c2cc(=O)c3c(OC)c(OC)c(OC)cc3o2)cc1 | 0.4

Quick batch: Activity for everything below.
1. CCN(CCCCCCNC(=O)COc1ccc(-c2cc(=O)c3c(OC)c(OC)c(OC)cc3o2)cc1)Cc1ccccc1
2. COc1cc2oc(-c3ccc(OCC(=O)NCCCN(C)Cc4ccccc4)cc3)cc(=O)c2c(OC)c1OC
3. CCN(CCCCCCNC(=O)COc1ccc(-c2cc(=O)c3c(O)c(OC)c(OC)cc3o2)cc1)Cc1ccccc1OC
4. COc1ccccc1CN(C)CCCCCCNC(=O)COc1ccc(-c2cc(=O)c3c(OC)c(OC)c(OC)cc3o2)cc1

*A*
0.39
0.39
0.99
0.41

Quick batch: Activity for everything below.
1. CCN(CCCNC(=O)COc1ccc(-c2cc(=O)c3c(O)c(OC)c(OC)cc3o2)cc1)Cc1ccccc1OC
2. CCN(CCCCNC(=O)COc1ccc(-c2cc(=O)c3c(OC)c(OC)c(OC)cc3o2)cc1)Cc1ccccc1OC
3. COc1cc2oc(-c3ccc(OCC(=O)NCCCCCCN(C)Cc4ccccc4)cc3)cc(=O)c2c(OC)c1OC
4. CCN(CCCNC(=O)COc1ccc(-c2cc(=O)c3c(OC)c(OC)c(OC)cc3o2)cc1)Cc1ccccc1
5. CCN(CCCCNC(=O)COc1ccc(-c2cc(=O)c3c(OC)c(OC)c(OC)cc3o2)cc1)Cc1ccccc1
6. COc1ccccc1CN(C)CCCCNC(=O)COc1ccc(-c2cc(=O)c3c(O)c(OC)c(OC)cc3o2)cc1
7. COc1ccccc1CN(C)CCCNC(=O)COc1ccc(-c2cc(=O)c3c(O)c(OC)c(OC)cc3o2)cc1
8. COc1cc2oc(-c3ccc(O)cc3)cc(=O)c2c(OC)c1OC

*A*
1. 0.97
2. 0.38
3. 0.37
4. 0.38
5. 0.36
6. 0.97
7. 1.14
8. 1.86

The reported measurements were obtained from ChEMBL document CHEMBL4052630.
